# Tested on: MDA-MB-231 cells
# Assay Name: MTT cytotoxicity assay, MDA-MB-231
# Format: cell-based, human
# Experimental Context: Homo sapiens, MDA-MB-231, 24 h, read-out: IC50 MDA-MB-231
Property Label: IC50 (nM)
Provide only the numeric value, understood in nM.

Example results:
{"columns": ["Test Smiles", "Tested On", "IC50 (nM)"],
 "data": [
  ["CCOC(=O)/C=C/c1ccc(OC(=O)[C@@]2(C)CC[C@]3(C)CC[C@]4(C)C(=CC(=O)[C@@H]5[C@@]6(C)CC[C@H](OC(=O)[C@@H](N)CC[Se]C)C(C)(C)[C@@H]6CC[C@]54C)[C@@H]3C2)cc1", "MDA-MB-231 cells", 1860],
  ["COC(=O)/C=C/c1ccc(OC(=O)[C@@]2(C)CC[C@]3(C)CC[C@]4(C)C(=CC(=O)[C@@H]5[C@@]6(C)CC[C@H](OC(=O)[C@@H](N)CC[Se]C)C(C)(C)[C@@H]6CC[C@]54C)[C@@H]3C2)c(OC)c1", "MDA-MB-231 cells", 1370]
]}

Prompt: // IC50 lookup, key: COC(=O)/C=C/c1ccc(OC)c(OC(=O)[C@@]2(C)CC[C@]3(C)CC[C@]4(C)C(=CC(=O)[C@@H]5[C@@]6(C)CC[C@H](OC(=O)[C@@H](N)CC[Se]C)C(C)(C)[C@@H]6CC[C@]54C)[C@@H]3C2)c1
Response: 3130

Prompt: // IC50 lookup, key: CCOC(=O)/C=C/c1ccc(OC(=O)[C@@]2(C)CC[C@]3(C)CC[C@]4(C)C(=CC(=O)[C@@H]5[C@@]6(C)CC[C@H](OC(=O)[C@@H](N)CC[Se]C)C(C)(C)[C@@H]6CC[C@]54C)[C@@H]3C2)c(OC)c1
Response: 3490

====

Structures can show the parent of a compound that is named as a salt.
Reported melting point values for a set of compounds

Example results:
{"columns": ["Compound", "melting point"],
 "data": [
  ["COC(=O)/C=C/c1ccc(OC(=O)[C@@]2(C)CC[C@]3(C)CC[C@]4(C)C(=CC(=O)[C@@H]5[C@@]6(C)CC[C@H](O)C(C)(C)[C@@H]6CC[C@]54C)[C@@H]3C2)c(OC)c1", "229 to 231 °C"],
  ["CCOC(=O)/C=C/c1ccc(OC)c(OC(=O)[C@@]2(C)CC[C@]3(C)CC[C@]4(C)C(=CC(=O)[C@@H]5[C@@]6(C)CC[C@H](OC(=O)[C@@H](N)CCSC)C(C)(C)[C@@H]6CC[C@]54C)[C@@H]3C2)c1 (as salt: hydrochloride)", "192 to 195 °C"],
  ["CCOC(=O)/C=C/c1ccc(OC(=O)[C@@]2(C)CC[C@]3(C)CC[C@]4(C)C(=CC(=O)[C@@H]5[C@@]6(C)CC[C@H](O)C(C)(C)[C@@H]6CC[C@]54C)[C@@H]3C2)cc1", "195 to 196 °C"]
]}

Prompt: // melting point lookup, key: COC(=O)/C=C/c1cccc(OC(=O)[C@@]2(C)CC[C@]3(C)CC[C@]4(C)C(=CC(=O)[C@@H]5[C@@]6(C)CC[C@H](OC(=O)[C@@H](N)CCSC)C(C)(C)[C@@H]6CC[C@]54C)[C@@H]3C2)c1 (as salt: hydrochloride)
Response: 190 to 192 °C
